Would you kindly list inhibition at 0.1 µM for each of these compounds?
# Target or system: 5-HT2A (Homo sapiens, UniProt P28223)
# Sequence (P28223 whole entry): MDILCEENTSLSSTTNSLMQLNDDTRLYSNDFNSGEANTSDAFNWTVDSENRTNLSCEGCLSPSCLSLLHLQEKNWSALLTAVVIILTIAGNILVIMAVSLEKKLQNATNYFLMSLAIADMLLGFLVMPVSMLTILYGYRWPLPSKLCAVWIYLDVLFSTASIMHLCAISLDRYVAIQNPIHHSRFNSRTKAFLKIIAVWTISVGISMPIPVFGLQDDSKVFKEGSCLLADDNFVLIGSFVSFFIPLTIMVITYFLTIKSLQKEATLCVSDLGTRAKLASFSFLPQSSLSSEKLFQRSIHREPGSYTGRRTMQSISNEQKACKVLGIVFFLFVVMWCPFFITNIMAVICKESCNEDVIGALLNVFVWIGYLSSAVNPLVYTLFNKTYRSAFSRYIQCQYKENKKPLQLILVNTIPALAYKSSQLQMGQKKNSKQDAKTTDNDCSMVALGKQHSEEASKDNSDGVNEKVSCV
# Test method notes: biochemical
# Assay type: binding
# Condition: read-out: maximum inhibition
Give bare numbers, in %.

In the examples that follow, each entry is paired with its recorded inhibition at 0.1 µM.
Request: Which measured inhibition at 0.1 µM belongs to O=C1CN2c3c(cccc3[C@@H]3CN(CCCOc4cccc(F)c4)CC[C@@H]32)N1 , tested on 5-HT2A (Homo sapiens, UniProt P28223)?
Response: 79

Request: Which measured inhibition at 0.1 µM belongs to Cc1ccc(OCCCN2CC[C@H]3[C@@H](C2)c2cccc4c2N3CC(=O)N4)cc1 , tested on 5-HT2A (Homo sapiens, UniProt P28223)?
Response: 62

Request: Which measured inhibition at 0.1 µM belongs to O=C1CN2c3c(cccc3[C@@H]3CN(CCCOc4ccccc4F)CC[C@@H]32)N1 , tested on 5-HT2A (Homo sapiens, UniProt P28223)?
Response: 88

Request: Which measured inhibition at 0.1 µM belongs to O=C1CN2c3c(cccc3[C@@H]3CN(CCCOc4ccc(Br)cc4)CC[C@@H]32)N1 , tested on 5-HT2A (Homo sapiens, UniProt P28223)?
Response: 72

Request: Which measured inhibition at 0.1 µM belongs to O=C1CN2c3c(cccc3[C@@H]3CN(CCCOc4ccc(I)cc4)CC[C@@H]32)N1 , tested on 5-HT2A (Homo sapiens, UniProt P28223)?
Response: 81

Now take the following compound into account.
Request: Which measured inhibition at 0.1 µM belongs to CC(C)N1C(=O)CN2c3c(cccc31)[C@@H]1CN(CCCOc3ccc(F)cc3)CC[C@@H]12 , tested on 5-HT2A (Homo sapiens, UniProt P28223)?
Response: 81

* * *

# Target or system: D1 (Homo sapiens)
# Sequence (P21728 whole entry): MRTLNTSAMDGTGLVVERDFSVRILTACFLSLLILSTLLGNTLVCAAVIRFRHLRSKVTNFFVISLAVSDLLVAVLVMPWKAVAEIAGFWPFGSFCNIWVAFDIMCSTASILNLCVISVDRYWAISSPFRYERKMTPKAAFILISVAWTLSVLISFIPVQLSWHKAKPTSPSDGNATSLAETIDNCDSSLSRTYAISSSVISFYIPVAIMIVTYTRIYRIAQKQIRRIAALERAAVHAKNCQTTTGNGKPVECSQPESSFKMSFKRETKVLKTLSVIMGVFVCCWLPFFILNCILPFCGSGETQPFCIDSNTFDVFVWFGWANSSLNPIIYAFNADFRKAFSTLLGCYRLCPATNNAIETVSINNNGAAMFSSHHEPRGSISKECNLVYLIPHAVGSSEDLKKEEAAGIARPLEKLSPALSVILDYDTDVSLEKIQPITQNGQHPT
# Test method notes: Receptor binding, D1
# Condition: @ 100 nM; read-out: maximum inhibition
Would you kindly list inhibition at 0.1 µM for each of these compounds?
Give bare numbers, in %.

In the examples that follow, each entry is paired with its recorded inhibition at 0.1 µM.
Request: # lookup: inhibition at 0.1 µM of CC(C)N1C(=O)CN2c3c(cccc31)[C@@H]1CN(CCCOc3ccc(F)cc3)CC[C@@H]12
Response: 70

Request: # lookup: inhibition at 0.1 µM of O=C1CN2c3c(cccc3[C@@H]3CN(CCCOc4ccccc4F)CC[C@@H]32)N1
Response: 18

Request: # lookup: inhibition at 0.1 µM of O=C1CN2c3c(cccc3[C@@H]3CN(CCCOc4ccc(Br)cc4)CC[C@@H]32)N1
Response: 3

Request: # lookup: inhibition at 0.1 µM of Cc1ccc(OCCCN2CC[C@H]3[C@@H](C2)c2cccc4c2N3CC(=O)N4)cc1
Response: 14

Request: # lookup: inhibition at 0.1 µM of O=C1CN2c3c(cccc3[C@@H]3CN(CCCOc4ccc(I)cc4)CC[C@@H]32)N1
Response: 3

Now take the following compound into account.
Request: # lookup: inhibition at 0.1 µM of O=C1CN2c3c(cccc3[C@@H]3CN(CCCOc4cccc(F)c4)CC[C@@H]32)N1
Response: 32
